Please go through the items and note down their melting point.
Counter-ions that a name gives are not always drawn.

The following compounds have reported results that may help.
compound: Cc1ccc2c3c(ccc2n1)OC[C@H](CN1CC=C(c2c[nH]c4c(F)cccc24)CC1)O3 [Example 21]
melting point: 205 to 221 °C
//
compound: Cc1ccc2c3c(ccc2n1)OCC(CN1CC=C(c2c[nH]c4ccc(F)cc24)CC1)O3 (stereo not drawn) (as salt: fumarate) (hydrate or solvate) [Example 11]
melting point: 198 to 199 °C

Exercise: Requested read-out: melting point. Entry: N#Cc1ccc2[nH]cc(C3=CCN(CC4COc5ccc6ncccc6c5O4)CC3)c2c1 (stereo not drawn) (as salt: fumarate) [Example 5]
Solution: 159 to 161 °C
